Target: DCN1-like protein 1 (Homo sapiens, UniProt Q96GG9)
Sequence (Q96GG9 whole entry, the tested form may be a part): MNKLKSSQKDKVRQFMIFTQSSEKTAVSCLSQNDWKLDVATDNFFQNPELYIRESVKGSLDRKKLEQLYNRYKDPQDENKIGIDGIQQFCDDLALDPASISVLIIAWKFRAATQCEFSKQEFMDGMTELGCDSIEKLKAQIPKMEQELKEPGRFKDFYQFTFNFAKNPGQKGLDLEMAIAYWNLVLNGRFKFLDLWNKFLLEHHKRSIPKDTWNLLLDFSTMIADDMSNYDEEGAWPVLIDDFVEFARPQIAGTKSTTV
Assay: Displacement of (S)-N1-((19S,22S)-26-Amino-19-carbamoyl-1-(3',6'-dihydroxy-3-oxo-3H-spiro[isobenzofuran-1,9'-xanthen]-5-yl)-1,13,21-trioxo-5,8,11-trioxa-2,14,20-triazahexacosan-22-yl)-2-((2S,5S,8S,11S,14S,17S,20S,23S,26S)-2-(3-amino-3-oxopropyl)-5,20-bis(4-aminobutyl)-14-benzyl-23-((S)-sec-butyl)-11-(hydroxymethyl)-8,17-diisobutyl-26-(naphthalen-2-ylmethyl)-4,7,10,13,16,19,22,25,28-nonaoxo-3,6,9,12,15,18,21,24,27-nonaazanonacosanamido)pentanediamide from recombinant N-terminal His6-tagged human DCN1 (58 to 259 residues) expressed in Escherichia coli Rosetta2 cells after 30 mins by fluorescence polarization assay
pKi: −log10 of the molar value. Non-standard residues stand in square brackets, D forms with d. Residues, ends and D or L forms follow the SMILES beside them. 2Nal = N[C@@H](Cc1ccc2ccccc2c1)C(=O)O
quantity: pKi

>>> recorded_number("CC[C@H](C)[C@H](NC(=O)[C@H](Cc1ccc2ccccc2c1)NC(C)=O)C(=O)N[C@@H](CCCCN)C(=O)N[C@@H](CC(C)C)C(N)=O (Ac-[2Nal]IKL-NH2)")
5.44

(1) CCC(=O)N[C@@H](Cc1nc2ccc(F)cc2s1)C(=O)N[C@H](C(=O)N[C@@H](CCCCN)C(=O)NC(c1ccccc1)c1ccccc1)C1CCCC1
(2) CCC(=O)N[C@@H](Cc1ccc2ccccc2c1)C(=O)N[C@@H](CC(F)(F)F)C(=O)N[C@@H](CCCCN)C(=O)NC(c1ccccc1)c1ccccc1
Exercise: Higher pKi between 1 and 2 ? Pick one and reply with its label.
Solution: 1

---

Molecular target: DCN1-like protein 1 (Homo sapiens)
Experiment: Binding affinity to biotin labeled recombinant N-terminal His6-tagged human DCN1 (58 to 259 residues) expressed in Escherichia coli Rosetta2 cells by biolayer interferometry analysis
quantity: Kd (nM)

(a) CCC(=O)N[C@@H](Cc1nc2ccc(Cl)cc2s1)C(=O)N[C@H](C(=O)N[C@@H](CCCCN)C(=O)N[C@@H]1CCOc2ccccc21)C1CCCC1
(b) CCC(=O)N[C@@H](Cc1ccc2ccccc2c1)C(=O)N[C@H](C(=O)N[C@@H](CCCCN)C(=O)NC(c1ccccc1)c1ccccc1)C1CCCC1
(c) CCC(=O)N[C@@H](Cc1nc2ccc(Cl)cc2s1)C(=O)N[C@H](C(=O)N[C@@H](CCCCN)C(=O)N[C@@H]1CCCc2ccccc21)C1CCCC1
Exercise: Parameters: sort_field (Kd), sort_dir (desc). # list labels per requested ordering
Solution: b, c, a
(b: 56.4 nM, c: 8.3 nM, a: 4.1 nM)

---

Target: DCN1-like protein 1 (Homo sapiens, UniProt Q96GG9)
Experiment: Binding affinity to biotin labeled recombinant N-terminal His6-tagged human DCN1 (58 to 259 residues) expressed in Escherichia coli Rosetta2 cells by biolayer interferometry analysis
quantity: Kd (nM)

(A) CCC(=O)N[C@@H](Cc1nc2ccc(Cl)cc2s1)C(=O)N[C@H](C(=O)N[C@@H](CCCCN)C(=O)NC(c1ccccc1)c1ccccc1)C1CCCC1
(B) CCC(=O)N[C@@H](Cc1nc2ccc(Cl)cc2s1)C(=O)N[C@H](C(=O)N[C@@H](CCCCN)C(=O)N[C@@H]1CCOc2ccccc21)C1CCNCC1
(C) CCC(=O)N[C@@H](Cc1nc2ccc(F)cc2s1)C(=O)N[C@H](C(=O)N[C@@H](CCCCN)C(=O)NC(c1ccccc1)c1ccccc1)C1CCCC1
Exercise: Parameters: sort_field (Kd), sort_dir (desc). # list labels per requested ordering
Solution: B, C, A
(B: 1470 nM, C: 37 nM, A: 8.1 nM)

(a) CCC(=O)N[C@@H](Cc1nc2ccc(Cl)cc2s1)C(=O)N[C@H](C(=O)N[C@@H](CCCCN)C(=O)N[C@@H]1CCOc2ccccc21)C1CCOCC1
(b) CCC(=O)N[C@@H](Cc1nc2ccccc2s1)C(=O)N[C@H](C(=O)N[C@@H](CCCCN)C(=O)NC(c1ccccc1)c1ccccc1)C1CCCC1
Exercise: Identify the entry with the smaller Kd: a or b . Pick one and reply with its label.
Solution: a
(a: 6.7 nM, b: 31.8 nM)

---

Molecular target: DCN1-like protein 1 (Homo sapiens, UniProt Q96GG9)
Experiment: Displacement of (S)-N1-((19S,22S)-26-Amino-19-carbamoyl-1-(3',6'-dihydroxy-3-oxo-3H-spiro[isobenzofuran-1,9'-xanthen]-5-yl)-1,13,21-trioxo-5,8,11-trioxa-2,14,20-triazahexacosan-22-yl)-2-((2S,5S,8S,11S,14S,17S,20S,23S,26S)-2-(3-amino-3-oxopropyl)-5,20-bis(4-aminobutyl)-14-benzyl-23-((S)-sec-butyl)-11-(hydroxymethyl)-8,17-diisobutyl-26-(naphthalen-2-ylmethyl)-4,7,10,13,16,19,22,25,28-nonaoxo-3,6,9,12,15,18,21,24,27-nonaazanonacosanamido)pentanediamide from recombinant N-terminal His6-tagged human DCN1 (58 to 259 residues) expressed in Escherichia coli Rosetta2 cells after 30 mins by fluorescence polarization assay
pIC50: −log10 of the molar value. Non-standard residues stand in square brackets, D forms with d. Residues, ends and D or L forms follow the SMILES beside them. *: point of attachment. 2Nal = N[C@@H](Cc1ccc2ccccc2c1)C(=O)O; Cyclopropanecarbonyl = O=C(C1CC1)*; Propionyl = CCC(=O)*; NHPh = c1ccc(N*)cc1; For = O=C*
quantity: pIC50

>>> recorded_number("CC[C@H](C)[C@H](NC(=O)[C@H](Cc1ccc2ccccc2c1)NC(=O)C1CC1)C(=O)N[C@@H](CCCCN)C(=O)N[C@@H](CC(C)C)C(N)=O (Cyclopropanecarbonyl-[2Nal]IKL-NH2)")
4.60
>>> recorded_number("CCC(=O)N[C@@H](Cc1nc2c(F)cccc2s1)C(=O)N[C@H](C(=O)N[C@@H](CCCCN)C(=O)NC(c1ccccc1)c1ccccc1)C1CCCC1")
5.31
>>> recorded_number("CCC(=O)N[C@@H](Cc1ccc2ccccc2c1)C(=O)N[C@H](C(=O)N[C@@H](CCCCN)C(=O)Nc1ccccc1)[C@@H](C)CC (Propionyl-[2Nal]-Ile-Lys-NHPh)")
4.46

(a) CC[C@H](C)[C@H](NC(=O)[C@H](Cc1ccc2ccccc2c1)NC=O)C(=O)N[C@@H](CCCCN)C(=O)N[C@@H](CC(C)C)C(N)=O (For-[2Nal]IKL-NH2)
(b) CCC(=O)N[C@@H](Cc1ccc2ccccc2c1)C(=O)N[C@@H](CC1CCCCC1)C(=O)N[C@@H](CCCCN)C(=O)NC(c1ccccc1)c1ccccc1
Exercise: Higher pIC50 between a and b ? Pick one and reply with its label.
Solution: b

---

Target: UniProt:Q96GG9
Test: Displacement of (S)-N1-((19S,22S)-26-Amino-19-carbamoyl-1-(3',6'-dihydroxy-3-oxo-3H-spiro[isobenzofuran-1,9'-xanthen]-5-yl)-1,13,21-trioxo-5,8,11-trioxa-2,14,20-triazahexacosan-22-yl)-2-((2S,5S,8S,11S,14S,17S,20S,23S,26S)-2-(3-amino-3-oxopropyl)-5,20-bis(4-aminobutyl)-14-benzyl-23-((S)-sec-butyl)-11-(hydroxymethyl)-8,17-diisobutyl-26-(naphthalen-2-ylmethyl)-4,7,10,13,16,19,22,25,28-nonaoxo-3,6,9,12,15,18,21,24,27-nonaazanonacosanamido)pentanediamide from recombinant N-terminal His6-tagged human DCN1 (58 to 259 residues) expressed in Escherichia coli Rosetta2 cells after 30 mins by fluorescence polarization assay
pIC50: −log10 of the molar value. Starred links: 1 amine or outer side, 2 acyl side, 3 side chain; linkers in the order of their positions; H or OH if unused. Non-standard residues stand in square brackets, D forms with d. Residues, ends and D or L forms follow the SMILES beside them. *: point of attachment. 2Nal = N[C@@H](Cc1ccc2ccccc2c1)C(=O)O; NHPhenethyl = c1ccc(CCN*)cc1; CO = O=C([*:1])[*:2]; Propionyl = CCC(=O)*
quantity: pIC50

(I) CC[C@H](C)[C@H](NC(=O)[C@H](Cc1ccc2ccccc2c1)NC(=O)NC)C(=O)N[C@@H](CCCCN)C(=O)N[C@@H](CC(C)C)C(N)=O ({NHMe-CO}-[2Nal]IKL-NH2)
(II) CC[C@H](C)[C@H](NC(=O)[C@H](CCSC)NC(C)=O)C(=O)N[C@@H](CCCCN)C(=O)N[C@@H](CC(C)C)C(N)=O (Ac-MIKL-NH2)
(III) CCC(=O)N[C@@H](Cc1ccc2ccccc2c1)C(=O)N[C@H](C(=O)N[C@@H](CCCCN)C(=O)NCCc1ccccc1)[C@@H](C)CC (Propionyl-[2Nal]-Ile-Lys-NHPhenethyl)
(IV) CCC(=O)N[C@@H](Cc1ccc2ccccc2c1)C(=O)N[C@H](C(=O)N[C@@H](CCCCN)C(=O)NC(c1ccccc1)c1ccccc1)C1CCCC1
Exercise: I would appreciate it if you could sort these 4 compounds by pIC50, starting from the smallest number. # list labels per requested ordering
Solution: II, I, III, IV
